Examples of molecules with documented selectivity ratio follow.
test: Selectivity index, ratio of IC50 against human WI38 cells to IC50 for Plasmodium falciparum 3D7; assay type: toxicity, cell-based, WI-38; conditions: read-out: Ratio IC50
// print number alone

{"columns": ["structure.as.smiles", "selectivity ratio"],
 "data": [
  ["C=C[C@H]1CN2CC[C@H]1C[C@H]2[C@H](O)c1cc(CC[C@@H](C)[C@H]2CC[C@H]3[C@@H]4[C@H](O)C[C@@H]5C[C@H](O)CC[C@]5(C)[C@H]4C[C@H](O)[C@]23C)nc2ccccc12", 4]
]}

The molecule listed as C=C[C@H]1CN2CC[C@H]1C[C@H]2[C@H](O)c1cc(CC[C@@H](C)[C@H]2CC[C@H]3[C@@H]4C[C@H](OC(C)=O)[C@@H]5C[C@H](OC(C)=O)CC[C@]5(C)[C@H]4CC[C@]23C)nc2ccc(OC)cc12 shows selectivity ratio equal to 13

Please fill in: selectivity ratio reported for C=C[C@H]1CN2CC[C@H]1C[C@@H]2[C@@H](O)c1cc(CC[C@@H](C)[C@H]2CC[C@H]3[C@@H]4C[C@H](OC(C)=O)[C@@H]5C[C@H](OC(C)=O)CC[C@]5(C)[C@H]4CC[C@]23C)nc2ccccc12 = 23

Input C=C[C@H]1CN2CC[C@H]1C[C@H]2[C@H](O)c1cc(CC[C@@H](C)[C@H]2CC[C@H]3[C@@H]4[C@H](OC(C)=O)[C@H](OC(C)=O)[C@@H]5C[C@H](OC(C)=O)CC[C@]5(C)[C@H]4CC[C@]23C)nc2ccc(OC)cc12 . Output selectivity ratio: 67.2

Reference source for all entries: ChEMBL document CHEMBL3588788
